Value source: the kinase profiling compilation of Christmann-Franck et al. (2016)

Assign residual activity to each entry below.
Target: UniProt:Q16513
Sequence (Q16513 whole entry, looked up): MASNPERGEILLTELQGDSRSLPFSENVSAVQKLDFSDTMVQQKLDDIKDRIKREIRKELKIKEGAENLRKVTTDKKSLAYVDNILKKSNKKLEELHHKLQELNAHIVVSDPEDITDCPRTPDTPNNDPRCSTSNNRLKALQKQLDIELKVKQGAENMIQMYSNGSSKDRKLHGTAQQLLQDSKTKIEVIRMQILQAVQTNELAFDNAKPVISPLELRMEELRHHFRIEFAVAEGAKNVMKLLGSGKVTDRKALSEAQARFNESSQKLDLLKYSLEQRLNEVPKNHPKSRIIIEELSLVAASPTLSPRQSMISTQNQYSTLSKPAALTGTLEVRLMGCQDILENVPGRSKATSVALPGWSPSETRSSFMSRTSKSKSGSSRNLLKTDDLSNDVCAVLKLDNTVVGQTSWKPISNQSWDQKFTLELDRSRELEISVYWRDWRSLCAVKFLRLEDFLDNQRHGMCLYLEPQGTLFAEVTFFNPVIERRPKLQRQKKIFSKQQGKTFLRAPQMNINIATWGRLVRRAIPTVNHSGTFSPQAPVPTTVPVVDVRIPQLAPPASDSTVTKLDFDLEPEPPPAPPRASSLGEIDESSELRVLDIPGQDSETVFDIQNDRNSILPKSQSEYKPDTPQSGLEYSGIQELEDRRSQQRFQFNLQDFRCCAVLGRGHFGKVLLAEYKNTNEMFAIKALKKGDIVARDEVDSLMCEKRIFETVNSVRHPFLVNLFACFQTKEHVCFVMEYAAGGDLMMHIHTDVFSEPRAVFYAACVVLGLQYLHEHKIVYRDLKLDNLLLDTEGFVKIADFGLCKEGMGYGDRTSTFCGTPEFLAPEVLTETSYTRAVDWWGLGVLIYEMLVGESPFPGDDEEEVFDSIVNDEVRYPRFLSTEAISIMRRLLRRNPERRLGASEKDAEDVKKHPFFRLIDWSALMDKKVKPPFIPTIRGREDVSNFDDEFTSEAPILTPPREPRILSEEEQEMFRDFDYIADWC
Experiment: radiometric filter-binding kinase assay, Kinase HotSpot
Conditions: compound 0.5 µM; ATP 10 µM
Give bare numbers, in %.

Study these solved cases before continuing.
| smilesRepresentation | tgt | unitString | measuredResult |
| --- | --- | --- | --- |
| COc1cc(Nc2c(C#N)cnc3cc(OCCCN4CCN(C)CC4)c(OC)cc23)c(Cl)cc1Cl | UniProt:Q16513 | % | 105 |
| COc1ccc(S(=O)(=O)N(CCO)c2ccccc2CN(C)C/C=C/c2ccc(Cl)cc2)cc1 | UniProt:Q16513 | % | 101 |
| O=C1C(Cl)=C(N2C(=O)CCC2=O)C(=O)c2ccccc21 | UniProt:Q16513 | % | 108 |
| c1ccc2c(-c3ccncc3)c[nH]c2c1 | UniProt:Q16513 | % | 80.8 |
| O=C(c1cc2cc(O)ccc2[nH]1)c1cc2cc(O)ccc2[nH]1 | UniProt:Q16513 | % | 97.1 |

Now look at this one.
The molecule listed as Cc1nc(-c2ccccc2)c(-c2ccncc2)o1 shows residual activity equal to 93.4

====

Target: NTRK1 (human) (UniProt P04629)
Sequence (P04629 whole entry, looked up): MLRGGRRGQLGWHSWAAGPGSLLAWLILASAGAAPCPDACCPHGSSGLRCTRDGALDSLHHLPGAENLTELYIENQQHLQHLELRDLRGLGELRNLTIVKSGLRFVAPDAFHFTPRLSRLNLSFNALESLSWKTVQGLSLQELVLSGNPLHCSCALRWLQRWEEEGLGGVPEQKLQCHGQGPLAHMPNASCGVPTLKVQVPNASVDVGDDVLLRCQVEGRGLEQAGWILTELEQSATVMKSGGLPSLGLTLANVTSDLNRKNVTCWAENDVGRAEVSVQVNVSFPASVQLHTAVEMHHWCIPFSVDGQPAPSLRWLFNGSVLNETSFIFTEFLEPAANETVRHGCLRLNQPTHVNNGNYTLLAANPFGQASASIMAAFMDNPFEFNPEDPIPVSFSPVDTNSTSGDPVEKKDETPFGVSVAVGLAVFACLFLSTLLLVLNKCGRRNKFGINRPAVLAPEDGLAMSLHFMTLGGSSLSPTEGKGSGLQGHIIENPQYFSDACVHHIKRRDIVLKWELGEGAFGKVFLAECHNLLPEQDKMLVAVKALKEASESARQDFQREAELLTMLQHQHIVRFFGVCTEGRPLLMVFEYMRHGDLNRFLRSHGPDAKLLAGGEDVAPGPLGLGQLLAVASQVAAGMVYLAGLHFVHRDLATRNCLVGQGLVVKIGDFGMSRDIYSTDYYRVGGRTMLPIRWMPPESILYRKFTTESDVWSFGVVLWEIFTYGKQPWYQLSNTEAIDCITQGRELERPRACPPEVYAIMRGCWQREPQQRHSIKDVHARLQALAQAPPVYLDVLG
Experiment: radiometric filter-binding kinase assay, Kinase HotSpot
Conditions: compound 0.5 µM; ATP 10 µM
Assign residual activity to each entry below.
Answers are plain numbers, in %.

Study these solved cases before continuing.
| smilesRepresentation | residual activity (%) |
| --- | --- |
| N#Cc1c[nH]c2c[nH]/c(=N\Cc3cccnc3)cc2/c1=N\c1ccc(F)c(Cl)c1 | 96.2 |
| N#C/C(=C\c1ccc(O)c(O)c1)C(=O)NCc1ccccc1 | 98.4 |
| COc1ccc(C(=O)Nc2sc3c(c2C(N)=O)CCCC3)cc1OC | 104 |
| Cn1c2ccccc2c2c3c(c4c5ccccc5n(CCC#N)c4c21)CNC3=O | 1.64 |
| c1ccc2c(-c3ccncc3)c[nH]c2c1 | 97 |

Provide each entry's residual activity from the list below.
1. O=C1Nc2ccc(Br)cc2/C1=C\c1cc2c([nH]1)CCCC2
2. Fc1ccc(-c2nc3n(c2-c2ccncc2)CCS3)cc1
3. O=C1C(Cl)=C(N2C(=O)CCC2=O)C(=O)c2ccccc21
4. NC(=O)c1cccc(-c2cc(Nc3ccc(OC(F)(F)F)cc3)ncn2)c1
5. O=C(c1cc2cc(O)ccc2[nH]1)c1cc2cc(O)ccc2[nH]1
6. COc1ccc(S(=O)(=O)N(CCO)c2ccccc2CN(C)C/C=C/c2ccc(Cl)cc2)cc1

[51.8, 99.5, 97, 96.6, 57.2, 110]

====

Assign residual activity to each entry below.
Molecular target: LIMK1 (human)
Experiment: radiometric filter-binding kinase assay, Kinase HotSpot
Settings: compound 0.5 µM; ATP 10 µM

Study these solved cases before continuing.
| smilesRepresentation | valueKind | measuredResult |
| --- | --- | --- |
| Fc1ccc(-c2nc3n(c2-c2ccncc2)CCS3)cc1 | residual activity | 89.3% |
| COc1ccc2c(c1)/C(=C/c1cnc[nH]1)C(O)=N2 | residual activity | 89.6% |
| c1ccc2c(-c3ccncc3)c[nH]c2c1 | residual activity | 92% |
| Cc1nc(-c2ccccc2)c(-c2ccncc2)o1 | residual activity | 95.5% |
| Cc1cncc2cccc(S(=O)(=O)N3CCCN(C(=O)CN)C[C@H]3C)c12 | residual activity | 91.9% |
| O=C1C(Cl)=C(N2C(=O)CCC2=O)C(=O)c2ccccc21 | residual activity | 92.5% |
| N#C/C(=C\c1ccc(O)c(O)c1)C(=O)NCc1ccccc1 | residual activity | 97% |
| O=C1NC(=O)c2c1c1c3ccccc3[nH]c1n1cncc21 | residual activity | 74.7% |
| COc1ccc2c(c1)c(C1=C(c3c[nH]c4ccccc34)C(=O)NC1=O)cn2CCCN(C)C | residual activity | 81.8% |
| O=C(c1cc2cc(O)ccc2[nH]1)c1cc2cc(O)ccc2[nH]1 | residual activity | 87.9% |

Provide each entry's residual activity from the list below.
1. Ic1cccc(CSc2nnc(-c3ccncc3)o2)c1
2. CS(=O)(=O)CCNCc1ccc(-c2ccc3ncnc(Nc4ccc(OCc5cccc(F)c5)c(Cl)c4)c3c2)o1
3. O=C1Nc2ccc(Br)cc2/C1=C\c1cc2c([nH]1)CCCC2

1. 85.8%
2. 95.2%
3. 83%

Provide each entry's residual activity from the list below.
1. COc1ccc(S(=O)(=O)N(CCO)c2ccccc2CN(C)C/C=C/c2ccc(Cl)cc2)cc1
2. C[C@@H]1CCN(C(=O)CC#N)C[C@@H]1N(C)c1ncnc2[nH]ccc12
3. N#Cc1c[nH]c2c[nH]/c(=N\Cc3cccnc3)cc2/c1=N\c1ccc(F)c(Cl)c1
4. NC(=O)c1cccc(-c2cc(Nc3ccc(OC(F)(F)F)cc3)ncn2)c1

["102%", "82%", "101%", "100%"]

====

Biological target: PLK1 (human) (UniProt P53350)
Sequence (P53350 whole entry, looked up): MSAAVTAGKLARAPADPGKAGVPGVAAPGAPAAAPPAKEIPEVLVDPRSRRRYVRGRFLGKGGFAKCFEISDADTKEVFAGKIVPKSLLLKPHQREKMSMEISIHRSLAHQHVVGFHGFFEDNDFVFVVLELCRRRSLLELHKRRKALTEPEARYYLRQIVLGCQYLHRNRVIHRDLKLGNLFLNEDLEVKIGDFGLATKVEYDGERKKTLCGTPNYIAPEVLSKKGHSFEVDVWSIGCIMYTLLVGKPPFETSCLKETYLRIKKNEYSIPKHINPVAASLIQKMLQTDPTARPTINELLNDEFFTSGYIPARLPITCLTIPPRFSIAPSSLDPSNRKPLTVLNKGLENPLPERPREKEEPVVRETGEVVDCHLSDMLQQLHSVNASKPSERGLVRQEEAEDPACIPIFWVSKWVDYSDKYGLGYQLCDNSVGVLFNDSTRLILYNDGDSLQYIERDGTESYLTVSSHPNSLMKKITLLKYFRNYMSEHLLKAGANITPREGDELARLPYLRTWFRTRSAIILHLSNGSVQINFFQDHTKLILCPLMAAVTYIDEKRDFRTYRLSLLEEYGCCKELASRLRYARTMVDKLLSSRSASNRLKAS
Assay: radiometric filter-binding kinase assay, Kinase HotSpot
Settings: compound 0.5 µM; ATP 10 µM
Assign residual activity to each entry below.
I'd appreciate it if you included the unit after the number.

| smilesRepresentation | measuredResult |
| --- | --- |
| Cn1c2ccccc2c2c3c(c4c5ccccc5n(CCC#N)c4c21)CNC3=O | 103% |

Provide each entry's residual activity from the list below.
1. CO[C@@H]1[C@H](N(C)C(=O)c2ccccc2)C[C@H]2O[C@]1(C)n1c3ccccc3c3c4c(c5c6ccccc6n2c5c31)C(=O)NC4
2. CN(C)CCCn1cc(C2=C(c3c[nH]c4ccccc34)C(=O)NC2=O)c2ccccc21

["95.4%", "101%"]

Provide each entry's residual activity from the list below.
1. N#C/C(=C\c1ccc(O)c(O)c1)C(=O)NCc1ccccc1
2. CN(C)c1ccc(/C=C2\C(=O)Nc3ccccc32)cc1
3. CS(=O)(=O)CCNCc1ccc(-c2ccc3ncnc(Nc4ccc(OCc5cccc(F)c5)c(Cl)c4)c3c2)o1
4. C[C@@H]1CCN(C(=O)CC#N)C[C@@H]1N(C)c1ncnc2[nH]ccc12
5. COc1ccc(C(=O)Nc2sc3c(c2C(N)=O)CCCC3)cc1OC
6. COc1cc(Nc2c(C#N)cnc3cc(OCCCN4CCN(C)CC4)c(OC)cc23)c(Cl)cc1Cl

1: 97.3%; 2: 103%; 3: 99%; 4: 101%; 5: 99%; 6: 93.8%

The compound listed as COc1ccc(Cl)cc1NC(=O)Nc1cc(C)nc2ccccc12 shows residual activity equal to 96.9%

====

Molecular target: UniProt:Q96SB4
Sequence (Q96SB4 whole entry, looked up): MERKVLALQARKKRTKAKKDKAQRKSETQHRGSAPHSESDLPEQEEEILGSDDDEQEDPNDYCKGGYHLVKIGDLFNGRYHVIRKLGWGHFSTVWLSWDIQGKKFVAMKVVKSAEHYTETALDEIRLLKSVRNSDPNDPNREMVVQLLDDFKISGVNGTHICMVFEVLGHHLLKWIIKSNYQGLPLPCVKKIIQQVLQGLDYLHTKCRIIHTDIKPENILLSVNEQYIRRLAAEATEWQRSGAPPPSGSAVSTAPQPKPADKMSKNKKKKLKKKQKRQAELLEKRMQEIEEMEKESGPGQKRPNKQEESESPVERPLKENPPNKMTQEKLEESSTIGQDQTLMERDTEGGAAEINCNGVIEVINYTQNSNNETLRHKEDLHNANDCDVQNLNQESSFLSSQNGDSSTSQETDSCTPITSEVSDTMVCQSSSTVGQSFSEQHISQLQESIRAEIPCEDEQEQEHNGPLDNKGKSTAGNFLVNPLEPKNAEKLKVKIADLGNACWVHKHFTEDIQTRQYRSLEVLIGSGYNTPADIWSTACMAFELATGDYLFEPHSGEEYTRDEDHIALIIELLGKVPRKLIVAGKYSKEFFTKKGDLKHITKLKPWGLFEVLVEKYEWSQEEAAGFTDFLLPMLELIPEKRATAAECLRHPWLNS
Experiment: radiometric filter-binding kinase assay, Kinase HotSpot
Details: compound 0.5 µM; ATP 10 µM
valueKind: residual activity (%)
Numbers only, in %.

Study these solved cases before continuing.
| smilesRepresentation | measuredResult |
| --- | --- |
| COc1ccc2c(c1)c(C1=C(c3c[nH]c4ccccc34)C(=O)NC1=O)cn2CCCN(C)C | 116 |
| Ic1cccc(CSc2nnc(-c3ccncc3)o2)c1 | 103 |
| Fc1ccc(-c2nc3n(c2-c2ccncc2)CCS3)cc1 | 100 |
| Cc1cncc2cccc(S(=O)(=O)N3CCCN(C(=O)CN)C[C@H]3C)c12 | 103 |
| C[C@@H]1CCN(C(=O)CC#N)C[C@@H]1N(C)c1ncnc2[nH]ccc12 | 99.8 |

Now look at this one.
The compound listed as COc1cc(Nc2c(C#N)cnc3cc(OCCCN4CCN(C)CC4)c(OC)cc23)c(Cl)cc1Cl shows residual activity equal to 98.5

====

Test system: FLT4 (human), P35916 [Q890H]
Sequence (P35916 whole entry, looked up, stated change not applied): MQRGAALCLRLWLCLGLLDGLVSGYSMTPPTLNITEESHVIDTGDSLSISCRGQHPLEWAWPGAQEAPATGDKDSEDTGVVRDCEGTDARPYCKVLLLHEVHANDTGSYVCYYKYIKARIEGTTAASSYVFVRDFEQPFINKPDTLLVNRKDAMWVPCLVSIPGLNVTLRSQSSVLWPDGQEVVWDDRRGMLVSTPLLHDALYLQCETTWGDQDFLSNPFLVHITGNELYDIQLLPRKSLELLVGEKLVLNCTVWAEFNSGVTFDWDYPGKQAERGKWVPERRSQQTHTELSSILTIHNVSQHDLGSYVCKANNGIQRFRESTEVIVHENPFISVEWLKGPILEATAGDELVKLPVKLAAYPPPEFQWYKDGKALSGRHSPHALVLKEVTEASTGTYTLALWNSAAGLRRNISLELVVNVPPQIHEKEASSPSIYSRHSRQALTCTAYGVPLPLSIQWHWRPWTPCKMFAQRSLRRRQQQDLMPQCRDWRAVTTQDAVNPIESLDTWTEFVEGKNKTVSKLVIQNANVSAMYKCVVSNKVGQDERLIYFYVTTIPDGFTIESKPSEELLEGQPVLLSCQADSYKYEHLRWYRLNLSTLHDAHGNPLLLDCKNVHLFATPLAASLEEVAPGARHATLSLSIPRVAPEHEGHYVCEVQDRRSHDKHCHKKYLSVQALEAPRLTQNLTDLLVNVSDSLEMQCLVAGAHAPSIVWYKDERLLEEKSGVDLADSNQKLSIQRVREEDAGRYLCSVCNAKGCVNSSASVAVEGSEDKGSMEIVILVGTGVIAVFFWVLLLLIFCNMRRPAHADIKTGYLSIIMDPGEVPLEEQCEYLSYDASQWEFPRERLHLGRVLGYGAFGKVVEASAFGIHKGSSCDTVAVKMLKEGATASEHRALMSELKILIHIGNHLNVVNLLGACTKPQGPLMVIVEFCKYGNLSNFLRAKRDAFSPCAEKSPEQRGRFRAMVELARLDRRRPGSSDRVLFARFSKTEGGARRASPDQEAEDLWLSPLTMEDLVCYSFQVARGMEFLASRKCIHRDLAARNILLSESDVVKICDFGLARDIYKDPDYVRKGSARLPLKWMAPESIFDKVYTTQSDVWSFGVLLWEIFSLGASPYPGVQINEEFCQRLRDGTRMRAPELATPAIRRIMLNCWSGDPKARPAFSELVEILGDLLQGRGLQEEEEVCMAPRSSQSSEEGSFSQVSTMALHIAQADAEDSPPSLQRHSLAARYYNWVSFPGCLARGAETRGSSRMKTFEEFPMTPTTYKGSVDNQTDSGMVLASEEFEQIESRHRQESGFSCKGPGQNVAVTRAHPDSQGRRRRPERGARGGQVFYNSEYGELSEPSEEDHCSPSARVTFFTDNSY
Experiment: radiometric filter-binding kinase assay, Kinase HotSpot
Conditions: compound 0.5 µM; ATP 10 µM
Rule: residual activity of 90% or more gives MET; anything lower gives NOT MET.

Hi, just wondering whether Nc1cccc(-c2cc3c(Oc4cccc(O)c4)ncnc3[nH]2)c1 shows residual activity of 90% or higher.
NOT MET

====

Assign residual activity to each entry below.
Molecular target: MARK4 (human)
Assay: radiometric filter-binding kinase assay, Kinase HotSpot
Conditions: compound 0.5 µM; ATP 10 µM
One number for each entry, in %.

Study these solved cases before continuing.
| smilesRepresentation | valueKind | unitString | measuredResult |
| --- | --- | --- | --- |
| COc1ccc2c(c1)c(C1=C(c3c[nH]c4ccccc34)C(=O)NC1=O)cn2CCCN(C)C | residual activity | % | 95.9 |
| CS(=O)(=O)CCNCc1ccc(-c2ccc3ncnc(Nc4ccc(OCc5cccc(F)c5)c(Cl)c4)c3c2)o1 | residual activity | % | 104 |
| CN(C)c1ccc(/C=C2\C(=O)Nc3ccccc32)cc1 | residual activity | % | 97 |

Provide each entry's residual activity from the list below.
1. CN(C)CCCn1cc(C2=C(c3c[nH]c4ccccc34)C(=O)NC2=O)c2ccccc21
2. Ic1cccc(CSc2nnc(-c3ccncc3)o2)c1
3. COc1ccc(Cl)cc1NC(=O)Nc1cc(C)nc2ccccc12
4. Cc1cncc2cccc(S(=O)(=O)N3CCCN(C(=O)CN)C[C@H]3C)c12
5. COc1ccc2c(c1)/C(=C/c1cnc[nH]1)C(O)=N2

66.9
86.8
79.7
95.7
37.4

Provide each entry's residual activity from the list below.
1. c1ccc2c(-c3ccncc3)c[nH]c2c1
2. COc1cc2ncnc(Nc3ccc(Oc4ccccc4)cc3)c2cc1OC

94.7
105

Known value: MARK4 (human) residual activity of the compound NC(=O)c1cccc(-c2cc(Nc3ccc(OC(F)(F)F)cc3)ncn2)c1 equals 98.1
